testedSystem: T1, NativeRPtag(large)_with_Tags_and_Cys (Thermoanaerobacter tengcongensis)
T1 construct: Unlabeled in anisotropy assays; coupled through the engineered N-terminal Cys to SulfoLink agarose or maleimide plates in column, pull-down and ELISA assays
T1 chain: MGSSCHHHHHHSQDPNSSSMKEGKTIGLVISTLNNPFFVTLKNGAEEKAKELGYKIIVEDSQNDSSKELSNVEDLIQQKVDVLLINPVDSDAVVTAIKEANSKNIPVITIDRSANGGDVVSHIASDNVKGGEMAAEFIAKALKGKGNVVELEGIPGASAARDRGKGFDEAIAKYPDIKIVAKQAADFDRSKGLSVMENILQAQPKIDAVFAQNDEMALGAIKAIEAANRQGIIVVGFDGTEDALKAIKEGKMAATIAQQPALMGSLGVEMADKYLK
testSummary: fluorescence anisotropy, association kinetics
No end group written: not given here. *: point of attachment. RhodamineB = CCN(CC)c1ccc2c(-c3ccccc3C(=O)*)c3ccc(=[N+](CC)CC)cc-3oc2c1
Below is a list of entries, each paired with its recorded kr (S* to S) value.
# value in min⁻¹; strip the unit string

Enquiry: Report kr (S* to S) for RhodamineB-KIANFIPAELKLITKA [RPtag(small) Nd2, Cd3, p5a, e18a]
Return: 0.13

Enquiry: Report kr (S* to S) for RhodamineB-KIPNFIPAELKLITK [RPtag(small) Nd2, Cd4]
Return: 0.13

Enquiry: Report kr (S* to S) for RhodamineB-GEKIPNFIPAELKLIAKENVQ [RPtag(small) t16a]
Return: 0.038

Next:
Enquiry: Report kr (S* to S) for RhodamineB-GEKIPAFIPAELKLITKENVQ [RPtag(small) n6a]
Return: 0.068

Enquiry: Report kr (S* to S) for RhodamineB-GEKIPNFIPAALKLITKENVQ [RPtag(small) e11a]
Return: 0.042

Enquiry: Report kr (S* to S) for RhodamineB-GEKIPNFIPAELKAITKENVQ [RPtag(small) l14a]
Return: 0.044

Enquiry: Report kr (S* to S) for RhodamineB-GEKIPNFAPAELKLITKENVQ [RPtag(small) i8a]
Return: 0.046

Enquiry: Report kr (S* to S) for RhodamineB-GEKIPNFIPAELKLITKEN [RPtag(small) Cd2]
Return: 0.043

Enquiry: Report kr (S* to S) for RhodamineB-KIPNFIPAELKLITKANAA [RPtag(small) Nd2, e18a, v20a, q21a]
Return: 0.06

Enquiry: Report kr (S* to S) for RhodamineB-GEKIANFIPAELKLITKENVQ [RPtag(small) p5a]
Return: 0.052
